Assign maximum percent change in A II-supported mean arterial pressure at 3 mg/kg to each entry below.
Test system: Rattus norvegicus
ASSAY_NOTES: Maximum percent change in A II supported mean arterial pressure 60 minutes following 3 mg/kg i.d. administration.
Assay type: functional
APPLIED_CONDITIONS: Artery, intraduodenal, in the assay text read “at the time of maximum effect following” for “60 minutes following”, read-out: Inhibition
State the value with its unit after it.

Please review the entries below; each comes with its answer.
Cc1nc(C)c2c(n1)N(Cc1ccc(-c3ccccc3-c3nn[nH]n3)cc1)C(=O)C(C)C2 (centres undefined): -63%
CCCc1nc(C)c2c(n1)N(Cc1ccc(-c3ccccc3-c3nn[nH]n3)cc1)C(=O)CC2: -58%
Cc1nc(C)c2c(n1)N(Cc1ccc(-c3ccccc3-c3nn[nH]n3)nc1)C(=O)CC2: -16%

Param item = Cc1nc(C)c2c(n1)N(Cc1ccc(-c3ccccc3-c3nn[nH]n3)cc1)CCC2 ; retrieve measured maximum percent change in A II-supported mean arterial pressure at 3 mg/kg.
-20%
